System: HL-60(TB) leukemia
Experiment: NCI tumour cell line growth inhibition, 48 h
Classify by measured TGI: t if it is equal to or exceeds 5 µM, f if it is smaller.

molecule=CCN(CC)c1ccc(/C=C/C(=O)c2cccc(NS(C)(=O)=O)c2)cc1 class_name=t
molecule=NC1=CC(=O)C(=O)c2cccnc21 class_name=t
molecule=COc1cc(/C=C/C(=O)c2c(C)n([O-])c3cc(C)c(C)cc3[n+]2=O)cc(OC)c1OC class_name=t

Query: Hello, I need to know if COc1ccc(/C=C/c2nc(N3CCOCC3)c3cc(F)c(F)cc3n2)cc1OC has measured TGI not below 5 µM. Thanks!
Result: t

Query: Hello, I need to know if OC(COc1ccc(Cl)cc1Cl)CN1CCCC1 (stereo not given) has measured TGI not below 5 µM. Thanks!
Result: t

Query: Hello, I need to know if N/C(=N\OC(=O)NC(Cl)=C(Cl)Cl)c1cc(C(F)(F)F)cc(C(F)(F)F)c1 has measured TGI not below 5 µM. Thanks!
Result: t

Query: Hello, I need to know if O=C(c1ccc(Cl)cc1)N1N=C(c2ccc(Cl)cc2)CC1(O)c1cc(F)c(Cl)cc1Cl (stereo not given) has measured TGI not below 5 µM. Thanks!
Result: t

Query: Hello, I need to know if Cn1c(=O)c(C(c2ccccc2)c2c(O)c3ccccc3n(C)c2=O)c(O)c2ccccc21 has measured TGI not below 5 µM. Thanks!
Result: t

Query: Hello, I need to know if Cc1c(N2C(=O)/C(=C\c3ccc(O)cc3)N=C2c2ccccc2)c(=O)n(-c2ccccc2)n1C has measured TGI not below 5 µM. Thanks!
Result: t

Query: Hello, I need to know if COCC(=O)[C@]1(O)Cc2c(O)c3c(c(O)c2[C@@H](OC2CC(N)C(O)C(C)O2)C1)C(=O)c1c(OC)cccc1C3=O (stereo not given in full) has measured TGI not below 5 µM. Thanks!
Result: f

Query: Hello, I need to know if CC(NC(=O)C(C)C(=O)NCc1ccc(C(F)(F)F)cc1)C(N)=O (stereo not given) has measured TGI not below 5 µM. Thanks!
Result: t

Query: Hello, I need to know if C=CCN1CC2CN=NC2(C#N)C1 (stereo not given) has measured TGI not below 5 µM. Thanks!
Result: t

Query: Hello, I need to know if O=C1NC(=O)c2c1c1c3ccccc3ccc1c1[nH]c3ccc(Br)cc3c21 has measured TGI not below 5 µM. Thanks!
Result: t

Query: Hello, I need to know if Cc1cc[c-]cc1.Fc1c[c-]c(-c2ccccn2)c(F)c1.N#CCC[PH+](CCC#N)c1ccccc1.[Pt+2] has measured TGI not below 5 µM. Thanks!
Result: t

Query: Hello, I need to know if Nc1c(C(=O)Nc2cccc3ccccc23)sc2nc3c(cc12)CCCC3 has measured TGI not below 5 µM. Thanks!
Result: f

Query: Hello, I need to know if O=C(Cc1ccccc1)Nc1nnc(CCSCCc2nnc(NC(=O)Cc3ccccc3)s2)s1 has measured TGI not below 5 µM. Thanks!
Result: t

Query: Hello, I need to know if CCOC(=O)CNC(SC)=C(C#N)C#N has measured TGI not below 5 µM. Thanks!
Result: t

Query: Hello, I need to know if CSc1nc2c(nc(N)n2C2OCC(O)C(O)C2O)c(=O)[nH]1 (stereo not given) has measured TGI not below 5 µM. Thanks!
Result: t

Query: Hello, I need to know if Sc1nnc(-c2ccccc2Nc2ccccc2-c2nnc(S)n2-c2ccccc2)n1-c1ccccc1 has measured TGI not below 5 µM. Thanks!
Result: t

Query: Hello, I need to know if COc1cc(N(C)C)ccc1/C=c1/c2ccccc2n2c1cc(-c1ccccc1)[n+]2C has measured TGI not below 5 µM. Thanks!
Result: f

====

Test system: OVCAR-3 ovarian
Assay: NCI tumour cell line growth inhibition, 48 h
In this section we review reported TGI values for a set of compounds.

compound="COC(=O)c1ccc(C)cc1C1CN=NC12Cc1cc(C)c(C)cc1C2=O (stereo not drawn)" experimental_result="> 100 µM"

Query: Return TGI for the following compound: CCCCCCC(CCl)c1sc(-c2csc(CCNC(=O)OC(C)(C)C)n2)nc1C(=O)OC (stereo not drawn)
Result: 86.8 µM

Query: Return TGI for the following compound: CSc1nc(Cl)c(Br)c(Nc2c[nH]c(=O)[nH]c2=O)n1
Result: 40.7 µM

Query: Return TGI for the following compound: Cc1nc2ccccc2c(=O)n1NC(=O)Cc1ccccc1
Result: > 100 µM

Query: Return TGI for the following compound: O=C(c1ccc(Cl)cc1)N1N=C(c2ccc(Cl)cc2)CC1(O)c1cc(F)c(Cl)cc1Cl (stereo not drawn)
Result: 55.6 µM

Query: Return TGI for the following compound: O=c1[nH]c(=O)n(C2CC(O)C(CO)O2)cc1NN=NCc1ccccc1 (stereo not drawn)
Result: > 100 µM

Query: Return TGI for the following compound: Cc1ccc(NC(=O)c2cccc([N+](=O)[O-])c2O)c(C)c1
Result: > 100 µM

====

System: RPMI-8226 leukemia
Assay: NCI tumour cell line growth inhibition, 48 h
Assay Metric: TGI

molecule=COC(=O)C[C@H](COCc1ccccc1)NC(=O)C[C@H](COCc1ccccc1)NC(=O)C[C@H](COCc1ccccc1)NC(=O)OC(C)(C)C assay_metric=TGI experimental_result="> 100 µM"

Query: Return TGI for the following molecule: C=CCC1NCCC2=C1C(S(=O)(=O)c1ccc(C)cc1)c1ccccc12 (stereo unspecified)
Result: 27.8 µM

Query: Return TGI for the following molecule: CCC[CH2][Sn]1([CH2]CCC)[O]C(=O)C[S]1
Result: 3.57 µM

Query: Return TGI for the following molecule: C#CCOCn1cnc2ncnc(Cl)c21
Result: > 100 µM

Query: Return TGI for the following molecule: O=C(CCCn1ccnc1[N+](=O)[O-])NCCn1cnc([N+](=O)[O-])c1
Result: > 100 µM

Query: Return TGI for the following molecule: N#CSCC1COc2ccccc2O1 (stereo unspecified)
Result: > 10 µM

Query: Return TGI for the following molecule: O=C(Nc1ccc2ccccc2c1)Nn1cnnc1
Result: > 100 µM

Query: Return TGI for the following molecule: CC1CCC2c3c([nH]c4ccccc34)C3C(=O)N(C4CCCCC4)C(=O)C3C2C1 (stereo unspecified)
Result: > 100 µM

Query: Return TGI for the following molecule: Cc1ccccc1NC(=S)N/N=C(/c1ccccc1)c1ccccn1
Result: 10.2 µM

Query: Return TGI for the following molecule: ClCc1c(-c2ccccc2)nn(-c2ccccc2)c1CCl
Result: 7.86 µM

Query: Return TGI for the following molecule: CC1NOC(NS(=O)(=O)c2ccc(N=Nc3c(O)c(C(=O)O)cc4ccccc34)cc2)C1C (stereo unspecified)
Result: > 100 µM

====

Tested on: SR leukemia
Assay: NCI tumour cell line growth inhibition, 48 h
Assay Metric: TGI (µM)
Entry rule: numbers only, all in µM.

Here's what some known entries look like.
compound="C/C=C/C=C/C1=NN(c2cccc(S(=O)(=O)O)c2)C2(C1)SCC(=O)N2c1nc2ccccc2s1 (centres undefined)" tested_system="SR leukemia" experimental_result=87.6
compound="CC(=O)NC1C(OCc2ccccc2)OC(CO)C(O)C1OCC(=O)NC(C)C(=O)NC(CCC(=O)NCCCCCC(=O)Nc1ccc2c(c1)CN1C(=O)c3ccccc3C1=N2)C(N)=O (centres undefined)" tested_system="SR leukemia" experimental_result=42.5
compound="COCC(=O)[C@]1(O)Cc2c(O)c3c(c(O)c2[C@@H](OC2CC(N)C(O)C(C)O2)C1)C(=O)c1c(OC)cccc1C3=O (some centres undefined)" tested_system="SR leukemia" experimental_result=0.159
compound="O=C1C=CC2(O[C@@H](Cc3ccccc3)[C@H](Cc3ccccc3)O2)C(SC(=O)c2ccccc2)C1 (some centres undefined)" tested_system="SR leukemia" experimental_result=0.807
compound="Cc1ccc(S(=O)(=Nc2ccccc2)C(C(C)C)C(C)(C)Cl)cc1 (centres undefined)" tested_system="SR leukemia" experimental_result=49.7
compound=N=C1N=C(N)c2cc3c(cc21)SCCSCCCSCCS3 tested_system="SR leukemia" experimental_result=37.6
compound="O=C1Nc2ccccc2C12CC(c1ccccc1)=NN2 (centres undefined)" tested_system="SR leukemia" experimental_result=34.8

Query: Return TGI for the following compound: CC[C@@]1(O)C(=O)OCc2c1cc1n(c2=O)Cc2c-1nc1ccccc1c2/C=N\NC(=O)C(N)CS (some centres undefined)
Result: 1.04

====

Tested on: A549 NSCLC
Assay: NCI tumour cell line growth inhibition, 48 h
Assay Metric: GI50

compound=O=C1C=C(N2CC2)c2ccccc2C1=O experimental_result="2.07 µM"
compound=O=C(Cc1ccccc1)Nc1nnc(CCSCCc2nnc(NC(=O)Cc3ccccc3)s2)s1 experimental_result="0.541 µM"
compound=O=C(O)c1cn(C2CC2)c2cc(N3CCN(S(=O)(=O)c4ccc(Cl)c(Cl)c4)CC3)c(F)cc2c1=O experimental_result="3.08 µM"
compound=CC(C)[C@@H](C(=O)O[C@@H]1/C=C/C(=O)O[C@@H](C)CCC/C=C/[C@@H]2C[C@H](O)C[C@H]21)[N+](C)(C)C experimental_result="> 100 µM"
compound=CN(C)CCCNC(=O)c1cc2c3ccccc3[nH]c2c2ncccc12 experimental_result="14.1 µM"

Query: Return GI50 for the following compound: Cc1sc2nc(-c3ccccn3)c(/C=N/N=C(N)N)n2c1C
Result: 12.6 µM

Query: Return GI50 for the following compound: C[C@@H]1CN(Cc2ccc(/C=C/c3n[nH]c4ccc5nc(-c6cn[nH]c6C(F)(F)F)c6c(c5c34)CCCC6)cc2)C[C@H](C)O1
Result: 2.56 µM

Query: Return GI50 for the following compound: O=C1C2C(C(=O)[N]1[Hg][c]1ccccc1)C1(Cl)C(Cl)=C(Cl)C2(Cl)C1(Cl)Cl (centres undefined)
Result: 9.84 µM

Query: Return GI50 for the following compound: COc1ccc(N2CCN(CC(=O)N3CCN(c4nnc(-c5ccccc5)c(-c5ccccc5)n4)CC3)CC2)cc1
Result: 16.2 µM
